For each entry below, report its half-life value.
- assay-procedure: In vivo half life period was determined in murine septicemia at dose of 50 mg/kg
- Assay type: ADME, organism-based
- Parameters: dose 50 mg/kg
- experimental-context: mouse
Give your result in h as a bare value.

// field: half-life; key: CCCCCCCCCC(=O)N[C@@H](Cc1c[nH]c2ccccc12)C(=O)N[C@H](CC(N)=O)C(=O)N[C@@H](CC(=O)O)C(=O)N[C@@H]1C(=O)NCC(=O)N[C@@H](CCCNC(=O)c2c(N)ccc3ccccc23)C(=O)N[C@@H](CC(=O)O)C(=O)N[C@H](C)C(=O)N[C@@H](CC(=O)O)C(=O)NCC(=O)N[C@H](CO)C(=O)N[C@@H]([C@H](C)CC(=O)O)C(=O)N[C@@H](CC(=O)c2ccccc2N)C(=O)O[C@@H]1C ; value = 5.6

Query CCCCCCCCCC(=O)N[C@@H](Cc1c[nH]c2ccccc12)C(=O)N[C@H](CC(N)=O)C(=O)N[C@@H](CC(=O)O)C(=O)N[C@@H]1C(=O)NCC(=O)N[C@@H](CCCNC(=O)[C@@H](N)CCCCN)C(=O)N[C@@H](CC(=O)O)C(=O)N[C@H](C)C(=O)N[C@@H](CC(=O)O)C(=O)NCC(=O)N[C@H](CO)C(=O)N[C@@H]([C@H](C)CC(=O)O)C(=O)N[C@@H](CC(=O)c2ccccc2N)C(=O)O[C@@H]1C yields half-life of 1.2

The molecule identified as CCCCCCCCCC(=O)N[C@@H](Cc1c[nH]c2ccccc12)C(=O)N[C@H](CC(N)=O)C(=O)N[C@@H](CC(=O)O)C(=O)N[C@@H]1C(=O)NCC(=O)N[C@@H](CCCN)C(=O)N[C@@H](CC(=O)O)C(=O)N[C@H](C)C(=O)N[C@@H](CC(=O)O)C(=O)NCC(=O)N[C@H](CO)C(=O)N[C@@H]([C@H](C)CC(=O)O)C(=O)N[C@@H](CC(=O)c2ccccc2N)C(=O)O[C@@H]1C registered its half-life at 1.7

====

- assay-procedure: In vivo total clearance was determined in murine septicemia at dose of 50 mg/kg
- Assay type: ADME, organism-based
- Parameters: dose 50 mg/kg
- experimental-context: mouse, read-out: CLtotal (converted)
I'd be grateful if you could share measured clearance for these entries.
The reply should be a number in mL/min/kg, with the unit left off.

// recorded clearance for CCCCCCCCCC(=O)N[C@@H](Cc1c[nH]c2ccccc12)C(=O)N[C@H](CC(N)=O)C(=O)N[C@@H](CC(=O)O)C(=O)N[C@@H]1C(=O)NCC(=O)N[C@@H](CCCNC(=N)N)C(=O)N[C@@H](CC(=O)O)C(=O)N[C@H](C)C(=O)N[C@@H](CC(=O)O)C(=O)NCC(=O)N[C@H](CO)C(=O)N[C@@H]([C@H](C)CC(=O)O)C(=O)N[C@@H](CC(=O)c2ccccc2N)C(=O)O[C@@H]1C : 1.08

Short answer for CCCCCCCCCC(=O)N[C@@H](Cc1c[nH]c2ccccc12)C(=O)N[C@H](CC(N)=O)C(=O)N[C@@H](CC(=O)O)C(=O)N[C@@H]1C(=O)NCC(=O)N[C@@H](CCCNC(=O)C(N)CCc2c[nH]c3ccccc23)C(=O)N[C@@H](CC(=O)O)C(=O)N[C@H](C)C(=O)N[C@@H](CC(=O)O)C(=O)NCC(=O)N[C@H](CO)C(=O)N[C@@H]([C@H](C)CC(=O)O)C(=O)N[C@@H](CC(=O)c2ccccc2N)C(=O)O[C@@H]1C (stereo partly drawn) : clearance was 0.883

Lab note: CCCCCCCCCC(=O)N[C@@H](Cc1c[nH]c2ccccc12)C(=O)N[C@H](CC(N)=O)C(=O)N[C@@H](CC(=O)O)C(=O)N[C@@H]1C(=O)NCC(=O)N[C@@H](CCCNC(=O)c2c(N)ccc3ccccc23)C(=O)N[C@@H](CC(=O)O)C(=O)N[C@H](C)C(=O)N[C@@H](CC(=O)O)C(=O)NCC(=O)N[C@H](CO)C(=O)N[C@@H]([C@H](C)CC(=O)O)C(=O)N[C@@H](CC(=O)c2ccccc2N)C(=O)O[C@@H]1C gave clearance of 0.3

====

- Test system: Enterococcus faecalis
- assay-procedure: Antibacterial activity against Enterococcus faecalis ATCC 49452
- Type: functional
experimental-endpoint: MIC (µg/mL)
Field: numeric (µg/mL). Do not append units.

Looking up CCCCCCCCCC(=O)N[C@@H](Cc1c[nH]c2ccccc12)C(=O)N[C@H](CC(N)=O)C(=O)N[C@@H](CCO)C(=O)N[C@@H]1C(=O)NCC(=O)N[C@@H](CCCNC(=O)c2ccccc2)C(=O)N[C@@H](CC(=O)O)C(=O)N[C@H](C)C(=O)N[C@@H](CC(=O)O)C(=O)NCC(=O)N[C@H](CO)C(=O)N[C@@H]([C@H](C)CC(=O)O)C(=O)N[C@@H](CC(=O)c2ccccc2N)C(=O)O[C@@H]1C , I found its MIC recorded as 25

MIC in this record for CCCCCCCCCC(=O)N[C@@H](Cc1c[nH]c2ccccc12)C(=O)N[C@H](CC(N)=O)C(=O)N[C@@H](CC(=O)O)C(=O)N[C@@H]1C(=O)NCC(=O)N[C@@H](CCCNC(=O)CC(C)(C)C(=O)O)C(=O)N[C@@H](CC(=O)O)C(=O)N[C@H](C)C(=O)N[C@@H](CC(=O)O)C(=O)NCC(=O)N[C@H](CO)C(=O)N[C@@H]([C@H](C)CC(=O)O)C(=O)N[C@@H](CC(=O)c2ccccc2N)C(=O)O[C@@H]1C : 50

Entry CCCCCCCCCC(=O)N[C@@H](Cc1c[nH]c2ccccc12)C(=O)N[C@@H](CC(N)=O)C(=O)N[C@@H](CC(=O)O)C(=O)N[C@@H]1C(=O)NCC(=O)N[C@@H](CCCNC(=O)C(N)Cc2c[nH]c3ccccc23)C(=O)N[C@@H](CC(=O)O)C(=O)N[C@H](C)C(=O)N[C@@H](CC(=O)O)C(=O)NCC(=O)N[C@H](CO)C(=O)N[C@@H]([C@H](C)CC(=O)O)C(=O)N[C@@H](CC(=O)c2ccccc2N)C(=O)O[C@@H]1C (stereo partly drawn) ; MIC = 12.5

====

- assay-procedure: In vivo Cmax in mice at dose of 100 mg/kg
- Format: ADME, organism-based
- Set-up: dose 100 mg/kg
- experimental-context: mouse
experimental-endpoint: Cmax (µg/mL)
Report only the number, with the unit µg/mL understood.

GET /value?item= CCCCCCCCCC(=O)N[C@@H](Cc1c[nH]c2ccccc12)C(=O)N[C@H](CC(N)=O)C(=O)N[C@@H](CC(=O)O)C(=O)N[C@@H]1C(=O)NCC(=O)N[C@@H](CCCNC(=O)c2ccccc2N)C(=O)N[C@@H](CC(=O)O)C(=O)N[C@H](C)C(=O)N[C@@H](CC(=O)O)C(=O)NCC(=O)N[C@H](CO)C(=O)N[C@@H]([C@H](C)CC(=O)O)C(=O)N[C@@H](CC(=O)c2ccccc2N)C(=O)O[C@@H]1C &field=Cmax returns 464

====

- assay-procedure: In vivo half life period was determined in murine septicemia at dose of 50 mg/kg
- Assay type: ADME, organism-based
- Parameters: dose 50 mg/kg
- experimental-context: mouse
experimental-endpoint: half-life (min)
Please reply with the bare figure in min and do not write the unit itself.

For record CCCCCCCCCC(=O)N[C@@H](Cc1c[nH]c2ccccc12)C(=O)N[C@H](CC(N)=O)C(=O)N[C@@H](CC(=O)O)C(=O)N[C@@H]1C(=O)NCC(=O)N[C@@H](CCCNC(=N)N)C(=O)N[C@@H](CC(=O)O)C(=O)N[C@H](C)C(=O)N[C@@H](CC(=O)O)C(=O)NCC(=O)N[C@H](CO)C(=O)N[C@@H]([C@H](C)CC(=O)O)C(=O)N[C@@H](CC(=O)c2ccccc2N)C(=O)O[C@@H]1C the listed half-life is 126

molecule CCCCCCCCCC(=O)N[C@@H](Cc1c[nH]c2ccccc12)C(=O)N[C@H](CC(N)=O)C(=O)N[C@@H](CC(=O)O)C(=O)N[C@@H]1C(=O)NCC(=O)N[C@@H](CCCNC(=O)C(N)CCc2c[nH]c3ccccc23)C(=O)N[C@@H](CC(=O)O)C(=O)N[C@H](C)C(=O)N[C@@H](CC(=O)O)C(=O)NCC(=O)N[C@H](CO)C(=O)N[C@@H]([C@H](C)CC(=O)O)C(=O)N[C@@H](CC(=O)c2ccccc2N)C(=O)O[C@@H]1C (stereo partly drawn) , half-life observed: 168

half-life recorded for this molecule, CCCCCCCCCC(=O)N[C@@H](Cc1c[nH]c2ccccc12)C(=O)N[C@H](CC(N)=O)C(=O)N[C@@H](CC(=O)O)C(=O)N[C@@H]1C(=O)NCC(=O)N[C@@H](CCCNC(=O)c2ccccc2N)C(=O)N[C@@H](CC(=O)O)C(=O)N[C@H](C)C(=O)N[C@@H](CC(=O)O)C(=O)NCC(=O)N[C@H](CO)C(=O)N[C@@H]([C@H](C)CC(=O)O)C(=O)N[C@@H](CC(=O)c2ccccc2N)C(=O)O[C@@H]1C , is 144
